Biological target: CDK2/CycE (Homo sapiens, UniProt P24941)
Construct: GST; purchased ProQinase GmbH (Freiburg, Germany); host or cells: insect cells (Sf9)
Assay: CDK2/CycE high ATP kinase assay (TR-FRET, Method 2b)
Assay type: biochemical
Settings: 2 mM ATP
Endpoint label: IC50 (nM)

query: Query (compound): CSCc1cc2nc(c1)OCCCCOc1cc(F)ccc1-c1cc(ncc1F)N2 ; field requested: IC50
result: 890

(P) CS(=N)(=O)Cc1cc2nc(c1)OCCOc1cc(F)ccc1-c1cc(ncc1F)N2 (racemic)
(Q) CS(=N)(=O)Cc1cc2nc(c1)OCCCCOc1cc(F)ccc1-c1cc(ncc1F)N2 (racemic)
(R) CCNC(=O)N=S(C)(=O)Cc1cc2nc(c1)OCCCOc1cc(F)ccc1-c1cc(ncc1F)N2 (racemic)
(S) C[S+]([O-])Cc1cc2nc(c1)OCCOc1cc(F)ccc1-c1cc(ncc1F)N2 (racemic)
(T) CS(=N)(=O)Cc1cc2nc(c1)OCCCOc1cc(F)ccc1-c1cc(ncc1F)N2 (racemic) [Example 5]
query: Endpoint returns the given compounds ordered by ascending IC50. Output spec: labels arranged per the requested ranking.
result: T, R, Q, P, S

(P) CS(=O)(Cc1cc2nc(c1)OCCCOc1cc(F)ccc1-c1cc(ncc1F)N2)=NS(=O)(=O)CCN.O=C(O)C(F)(F)F (racemic) [Example 24, trifluoroacetate]
(Q) CS(=O)(=O)Cc1cc2nc(c1)OCCCOc1cc(F)ccc1-c1cc(ncc1F)N2
query: Looking only at measured IC50, which entry is lower, P or Q ? Please respond with the label that marks your chosen entry.
result: Q
(Q: 33.6 nM, P: 166 nM)

(I) CS(=O)(=O)N=S(C)(=O)Cc1cc2nc(c1)OCCCOc1cc(F)ccc1-c1cc(ncc1F)N2 (racemic)
(II) CS(=O)(Cc1cc2nc(c1)OCCCOc1cc(F)ccc1-c1cc(ncc1F)N2)=NC(=O)OCCCl (racemic)
query: Which entry has a larger number for IC50, I or II ? Record your answer as the label of the chosen record.
result: I

(1) CS(=N)(=O)Cc1cc2cc(c1)OCCCCOc1cc(F)ccc1-c1nc(ncc1F)N2 (racemic)
(2) CSCc1cc2cc(c1)OCCCOc1cc(F)ccc1-c1nc(ncc1F)N2
(3) CS(=N)(=O)Cc1cc2nc(c1)OCCCOc1cc(F)ccc1-c1cc(ncc1F)N2 (single isomer, unassigned; enantiomer 2) [Example 7]
query: Rank the items in ascending order with respect to IC50. Please list the labels in the order you were asked to rank them.
result: 3, 1, 2

(a) CN=S(C)(=O)Cc1cc2nc(c1)OCCCOc1cc(F)ccc1-c1cc(ncc1F)N2 (racemic)
(b) CS(=O)(Cc1cc2nc(c1)OCCCOc1cc(F)ccc1-c1cc(ncc1F)N2)=NS(=O)(=O)CCN (racemic)
query: Choose between a and b : whose measured IC50 value is numerically larger? Answer format: the label of the selected item.
result: b
(b: 272 nM, a: 159 nM)

---

Molecular target: CDK9/CycT1 (Homo sapiens, UniProt P50750)
Construct: Recombinant full-length His-tagged human CDK9 and CycT1; His; purchased Invitrogen PV4131; host or cells: insect cells
Sequence (P50750 whole entry): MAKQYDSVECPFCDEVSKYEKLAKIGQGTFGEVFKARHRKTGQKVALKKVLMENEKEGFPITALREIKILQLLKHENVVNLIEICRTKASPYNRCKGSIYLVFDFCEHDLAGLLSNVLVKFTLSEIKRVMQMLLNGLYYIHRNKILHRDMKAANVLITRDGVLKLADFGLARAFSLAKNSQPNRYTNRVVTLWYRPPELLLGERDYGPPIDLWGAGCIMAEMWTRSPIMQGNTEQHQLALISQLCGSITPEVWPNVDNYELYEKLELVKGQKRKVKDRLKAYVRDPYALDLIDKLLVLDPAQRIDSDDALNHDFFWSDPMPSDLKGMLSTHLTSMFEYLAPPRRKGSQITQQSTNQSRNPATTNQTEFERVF
Sequence (O60563 whole entry partner): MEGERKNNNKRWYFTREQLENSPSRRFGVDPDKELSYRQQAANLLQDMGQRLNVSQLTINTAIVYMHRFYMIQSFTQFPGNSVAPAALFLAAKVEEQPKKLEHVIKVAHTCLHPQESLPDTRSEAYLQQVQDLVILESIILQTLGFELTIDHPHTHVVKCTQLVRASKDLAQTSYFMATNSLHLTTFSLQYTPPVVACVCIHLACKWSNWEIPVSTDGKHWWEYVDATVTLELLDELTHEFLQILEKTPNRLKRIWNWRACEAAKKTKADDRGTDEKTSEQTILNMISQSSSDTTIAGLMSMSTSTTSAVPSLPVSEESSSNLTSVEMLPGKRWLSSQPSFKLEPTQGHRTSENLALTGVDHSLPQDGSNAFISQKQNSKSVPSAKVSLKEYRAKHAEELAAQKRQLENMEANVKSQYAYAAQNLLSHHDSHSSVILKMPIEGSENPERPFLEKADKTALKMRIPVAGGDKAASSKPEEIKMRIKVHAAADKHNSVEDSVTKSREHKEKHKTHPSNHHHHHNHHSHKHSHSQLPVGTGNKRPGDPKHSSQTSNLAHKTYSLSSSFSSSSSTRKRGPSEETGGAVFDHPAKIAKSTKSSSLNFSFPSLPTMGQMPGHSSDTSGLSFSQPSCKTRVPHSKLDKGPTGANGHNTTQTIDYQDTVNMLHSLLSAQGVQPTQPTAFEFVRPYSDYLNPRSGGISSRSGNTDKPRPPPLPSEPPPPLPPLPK
Assay: CDK9/CycT1 high ATP kinase assay (TR-FRET, Method 1b)
Assay type: biochemical
Details: Methods 1b and 2b; minimal values where CDK9 IC50 is at the assay limit
Endpoint label: Selectivity high ATP CDK9 over high ATP CDK2: IC50 (high ATP CDK2)/IC50 (high ATP CDK9)

query: Given CS(=O)(=O)N=S(C)(=O)Cc1cc2nc(c1)OCCCOc1cc(F)ccc1-c1cc(ncc1F)N2 (racemic) [Example 22] , state its recorded Selectivity high ATP CDK9 over high ATP CDK2: IC50 (high ATP CDK2)/IC50 (high ATP CDK9).
result: 71.6

query: What value of Selectivity high ATP CDK9 over high ATP CDK2: IC50 (high ATP CDK2)/IC50 (high ATP CDK9) has been recorded for this entry: CSCc1cc2nc(c1)OCCCOc1cc(F)ccc1-c1cc(ncc1F)N2 [Example 3]
result: 28.2

query: Endpoint output: Selectivity high ATP CDK9 over high ATP CDK2: IC50 (high ATP CDK2)/IC50 (high ATP CDK9) of CS(=N)(=O)Cc1cc2nc(c1)OCCCOc1cc(F)ccc1-c1cc(ncc1F)N2 (single isomer, unassigned; enantiomer 1) [Example 6] . Value?
result: 35.4

(I) C[S+]([O-])Cc1cc2nc(c1)OCCCCOc1cc(F)ccc1-c1cc(ncc1F)N2 (racemic) [Example 13]
(II) CS(=O)(Cc1cc2nc(c1)OCCCOc1cc(F)ccc1-c1cc(ncc1F)N2)=NS(=O)(=O)CCN (racemic) [Example 23]
(III) CS(=N)(=O)Cc1cc2cc(c1)OCCCOc1cc(F)ccc1-c1nc(ncc1F)N2 (racemic) [Example 15]
(IV) C[S+]([O-])Cc1cc2nc(c1)OCCCOc1cc(F)ccc1-c1cc(ncc1F)N2 (racemic) [Example 4]
query: Order by Selectivity high ATP CDK9 over high ATP CDK2: IC50 (high ATP CDK2)/IC50 (high ATP CDK9), ascending. # output: labels, in the requested order
result: IV, I, II, III

---

Target: CDK9/CycT1 (Homo sapiens)
Construct: Recombinant full-length His-tagged human CDK9 and CycT1; His; purchased Invitrogen PV4131; host or cells: insect cells
Assay: CDK9/CycT1 kinase assay (TR-FRET, Method 1a)
Type: biochemical
Conditions: Method 1a, 10 μM ATP
pIC50: −log10 of the molar value.
Endpoint label: pIC50

Completed entries (count: 3):
query: Request the reported pIC50 associated with CSCc1cc2nc(c1)OCCCOc1cc(F)ccc1-c1cc(ncc1F)N2
result: 8.17

query: Item under review: CS(=N)(=O)Cc1cc2cc(c1)OCCCOc1cc(F)ccc1-c1nc(ncc1F)N2 (racemic) . Reported pIC50?
result: 8.42

query: Which pIC50 value is on record for C[S+]([O-])Cc1cc2nc(c1)OCCCCOc1cc(F)ccc1-c1cc(ncc1F)N2 (racemic) ?
result: 8.40

(1) C[S+]([O-])Cc1cc2nc(c1)OCCOc1cc(F)ccc1-c1cc(ncc1F)N2 (racemic)
(2) CSCc1cc2nc(c1)OCCCCOc1cc(F)ccc1-c1cc(ncc1F)N2
query: Between 1 and 2 , whose measured pIC50 reads higher? Your answer should be the label of the entry you select.
result: 1
(1: 8.14, 2: 7.78)

---

Tested on: DU145 cells
Assay: Proliferation assay DU145
Assay type: cell-based, human
Settings: 4 days, crystal violet; read-out: Inhibition of DU145 cell proliferation IC50
Description: […]
Endpoint label: IC50 (nM)

(A) CS(=N)(=O)Cc1cc2nc(c1)OCCCOc1cc(F)ccc1-c1cc(ncc1F)N2 (single isomer, unassigned; enantiomer 2) [Example 7]
(B) CS(=O)(Cc1cc2nc(c1)OCCCOc1cc(F)ccc1-c1cc(ncc1F)N2)=NS(=O)(=O)CCN (racemic) [Example 23]
query: Two entries are listed, A and B . Which one carries the higher IC50? Indicate which entry you chose by stating its label.
result: B

---

Biological target: CDK9/CycT1 (Homo sapiens)
Construct: Recombinant full-length His-tagged human CDK9 and CycT1; His; purchased Invitrogen PV4131; host or cells: insect cells
Assay: CDK9/CycT1 high ATP kinase assay (TR-FRET, Method 1b)
Assay type: biochemical
Details: Method 1b, 2 mM ATP
Endpoint label: IC50 (nM)

Recorded results for 2 compounds are shown here.
query: So what's the measured IC50 for this one? NCCS(=O)(=O)Cc1cc2nc(c1)OCCCOc1cc(F)ccc1-c1cc(ncc1F)N2
result: 3.4

query: Could you share which IC50 value was measured for CS(=N)(=O)Cc1cc2nc(c1)OCCCOc1cc(F)ccc1-c1cc(ncc1F)N2 (single isomer, unassigned; enantiomer 2) [Example 7] ?
result: 2.6

(I) CS(=N)(=O)Cc1cc2nc(c1)OCCCCOc1cc(F)ccc1-c1cc(ncc1F)N2 (racemic)
(II) CS(=O)(Cc1cc2nc(c1)OCCCOc1cc(F)ccc1-c1cc(ncc1F)N2)=NS(=O)(=O)CCN.O=C(O)C(F)(F)F (racemic) [Example 24, trifluoroacetate]
(III) CSCc1cc2nc(c1)OCCOc1cc(F)ccc1-c1cc(ncc1F)N2
(IV) CSCc1cc2nc(c1)OCCCCOc1cc(F)ccc1-c1cc(ncc1F)N2
(V) CS(=O)(Cc1cc2nc(c1)OCCCOc1cc(F)ccc1-c1cc(ncc1F)N2)=NC(=O)OCCCl (racemic)
query: Arrange by IC50, high to low. Order the labels as requested and list them.
result: III, IV, V, I, II
(III: 65 nM, IV: 11.8 nM, V: 5.9 nM, I: 3.6 nM, II: 1.8 nM)

---

Target: CDK2/CycE (Homo sapiens, UniProt P24941)
Construct: GST; purchased ProQinase GmbH (Freiburg, Germany); host or cells: insect cells (Sf9)
Test: CDK2/CycE high ATP kinase assay (TR-FRET, Method 2b)
Assay type: biochemical
Conditions: 2 mM ATP
Endpoint label: IC50 (nM)

query: Request: IC50, test system CDK2/CycE (Homo sapiens, UniProt P24941), entry CS(=N)(=O)Cc1cc2nc(c1)OCCCOc1cc(F)ccc1-c1cc(ncc1F)N2 (single isomer, unassigned; enantiomer 1) [Example 6]
result: 38.3

(1) CCOC(=O)N=S(C)(=O)Cc1cc2nc(c1)OCCCOc1cc(F)ccc1-c1cc(ncc1F)N2 (racemic)
(2) CS(=O)(Cc1cc2cc(c1)OCCCOc1cc(F)ccc1-c1nc(ncc1F)N2)=NC(=O)C(F)(F)F (racemic)
(3) CSCc1cc2nc(c1)OCCCOc1cc(F)ccc1-c1cc(ncc1F)N2
query: Place the items in sequence of falling IC50. Please list each label once, in the requested order.
result: 2, 3, 1
